Each recorded value in this set is attributed to paper PMC6556873.

TEST_DESCRIPTION: in vitro
Set-up: species or system CCD841, HEK293
MEASUREMENT_CONTEXT: human, hb2 cells, read-out: HB-2 Cells Viability (%)
EXPERIMENTAL_READOUT: viability at 48 h, 10 µM (%)
Kindly provide the numeric value in % only, without the unit symbol.

Solved entries:
- MOLECULE: "C=CC(=O)N1CCC(N2CCS(=O)(=O)CC2)CC1"
  MEASURED: 102
- MOLECULE: "O=C(CCl)Nc1nc2ccc(F)cc2s1"
  MEASURED: 53
- MOLECULE: "C=CC(=O)Nc1sc2c(c1C#N)CCCC2"
  MEASURED: 64.1
- MOLECULE: "Cl.O=C(CCl)N1CCN(Cc2cccc3ccccc23)CC1"
  MEASURED: 9.4

Then there is this molecule:
viability at 48 h, 10 µM measured on C=CC(=O)N1CCCC(NC(=O)c2ccc(C(F)(F)F)cc2)C1 (centres unmarked) = 98.9
